Procedure text: Inhibition of cell division in sea urchin fertilized egg at 1 ug/ml
Conditions used: echinoidea, fertilized sea urchin eggs
Measurement label: inhibition at 1 ug/ml (%)
Record the value in %, omitting the unit from your answer.

Given C=C1CCC2=C(C)Cc3occ(C)c3C[C@@H]12 , state its recorded inhibition at 1 ug/ml. 90
